target_or_system: hSK3 channels (Homo sapiens)
Construct: expressed in transfected cells; host or cells: HEK293
procedure_summary: Whole-cell patch-clamp recording of ionic current through SK channels (subtype 3) in HEK293 cells expressing hSK3
Assay type: cell-based
condition_set: SK3 activation
endpoint: The SC100 (Stimulating Concentration required for increasing the baseline current by 100%) (µM)

{"smiles_notation": "Cc1cc(-c2ccco2)nn1-c1nc(Nc2ccc(Cl)cc2)c2ncn(C)c2n1", "unit_string": "µM", "measured_value": 1.0}
{"smiles_notation": "Cc1nn(-c2nc(Nc3ccc(Cl)cc3)c3ncn(C)c3n2)c(C)c1Cl", "unit_string": "µM", "measured_value": 0.02}
{"smiles_notation": "Cc1cc(C)n(-c2nc(Nc3ccc(Cl)nc3)c3ncn(C)c3n2)n1", "unit_string": "µM", "measured_value": 0.4}
{"smiles_notation": "Cc1cc(C)n(-c2nc(Nc3ccc([N+](=O)[O-])cc3)c3ncn(C)c3n2)n1", "unit_string": "µM", "measured_value": 0.2}

---

Recorded measurements of The SC100 (Stimulating Concentration required for increasing the baseline current by 100%), one per entry
target_or_system: hSK3 channels (Homo sapiens)
Construct: expressed in transfected cells; host or cells: HEK293
procedure_summary: Whole-cell patch-clamp recording of ionic current through SK channels (subtype 3) in HEK293 cells expressing hSK3
Type: cell-based
condition_set: SK3 activation
endpoint: The SC100 (Stimulating Concentration required for increasing the baseline current by 100%) (µM)

{"smiles_notation": "Cc1cc(C)n(-c2nc(Nc3ccccc3)c3nc[nH]c3n2)n1", "measured_value": 0.2}
{"smiles_notation": "CCc1cc(CC)n(-c2nc(Nc3ccc(Cl)cc3)c3ncn(C)c3n2)n1", "measured_value": 0.6}
{"smiles_notation": "COCCn1cnc2c(Nc3ccccc3)nc(-n3nc(C)cc3C)nc21", "measured_value": 0.4}
{"smiles_notation": "Cc1cc(CO)n(-c2nc(Nc3ccc(Cl)cc3)c3ncn(C)c3n2)n1", "measured_value": 0.2}
{"smiles_notation": "Cc1cc(C)n(-c2nc(Nc3ccc(F)cc3)c3ncn(C)c3n2)n1", "measured_value": 0.05}
{"smiles_notation": "Cc1cc(C)n(-c2nc(NCCc3ccccc3)c3ncn(C)c3n2)n1", "measured_value": 0.2}
{"smiles_notation": "CCn1cnc2c(Nc3ccc(Cl)cc3)nc(-n3nc(C)cc3C)nc21", "measured_value": 0.01}
